B1: glmS ribozyme (parent)
chain: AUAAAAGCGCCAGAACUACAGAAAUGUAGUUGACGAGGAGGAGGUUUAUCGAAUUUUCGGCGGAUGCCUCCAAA

# Variants of: B1
# procedure text: self-cleavage kobs at 10000 uM GlcN6P; higher = faster cleavage; RNA array
# condition context: with glucosamine-6-phosphate
This sample holds only a part of the variants without activity.
Decide by self-cleavage kobs at 10000 uM GlcN6P: equal to or exceeding 0.0002 s⁻¹ means Condition met, less means Condition not met.

input: Does the variant AUAAAAGUGCCAGAACUACAGAAAUGUAGUUGACGAGGAGGCGGUUUAUCGAAUUUUCGGCGGAUGCCUCCAAA [C8U A42C] have recorded self-cleavage kobs at 10000 uM GlcN6P that is 0.0002 s⁻¹ or more?
output: Condition not met

input: Threshold query (self-cleavage kobs at 10000 uM GlcN6P >= 0.0002 s⁻¹) on AUAAACGCGCCAGAACUACAGAAAUGUAGUGGACGAGGACGAGGUUUAUCGAAUUUUCGGCGGAUGCCUCCAAA [A6C U31G G40C]
output: Condition not met

input: hey, is self-cleavage kobs at 10000 uM GlcN6P for this one >= 0.0002 s⁻¹? AUAAAAGCGCCAGAACUACAGAAAUGUAGGUUACGAGGAGGAGGUUUAUCGAAUUUUCGGCGGAUGCCUCCAAA [U30G G32U]
output: Condition met

input: Hi team, for AUAAAAGCGCCCGAACUACAGACAUGUAGUUGACGAGGAGGAGGUUUAUCGAAGUUUCGGCGGAUGCCUACAAA [A12C A23C U54G C70A] , is the recorded self-cleavage kobs at 10000 uM GlcN6P at or above 0.0002 s⁻¹?
output: Condition not met

input: Decide: is the reported value of self-cleavage kobs at 10000 uM GlcN6P for AUAAAAGCGCCAGAACUACAGAAAUGUAGUUGACGAGGAGAAGGUUUAACGAAUUUUCGGCGGAUGCCUCCAAA [G41A U49A] equal to or greater than 0.0002 s⁻¹?
output: Condition not met

input: Answer whether self-cleavage kobs at 10000 uM GlcN6P of AUAAAAGCGCCAGAACUACAGAAAUGUACUUGACGAGGAGAAGGUUUAUCGAAUUUUCGGCGGAUGCCUCCAAA [G29C G41A] is greater than or equal to 0.0002 s⁻¹.
output: Condition not met

input: // inclusive: self-cleavage kobs at 10000 uM GlcN6P at least 0.0002 s⁻¹? input: AUAAAAGCGCCAGAACUACAGAAAUGUAGUUGACGAGGACGAGGUUCAUCGAAUUUUCGGCGGAUGCCUCCAAA [G40C U47C]
output: Condition met

input: Check if self-cleavage kobs at 10000 uM GlcN6P >= 0.0002 s⁻¹ (inclusive). Item: AUAAAAGCGCCAGAACUACAGAAAUGUAGUUGACGAGGAGGAGAUUUAUCGAAUUUUCGGCGGAUGCCACCAAA [G44A U69A]
output: Condition not met

input: Could you please find out whether AUAAACGCGCCAGAACUACAGAAAUGUAGUUGACGAGGAGGAGGUUUAUCGAAUUUUCGUCGGAUGCCUCCAAA [A6C G60U] has self-cleavage kobs at 10000 uM GlcN6P that meets 0.0002 s⁻¹ or exceeds it?
output: Condition not met

input: Is it the case that AUAAAAGCGCCAGAACUACAGAAAUGUAGUUGACGAGGAGGAGGUCUAUCGCAUUUUCGUUGGAUGCCUCCAAA [U46C A52C G60U C61U] has self-cleavage kobs at 10000 uM GlcN6P reaching or exceeding 0.0002 s⁻¹?
output: Condition not met

input: Hi, just wondering whether AUAAAAGCGCCAGAACUACAGAAAUGUAGUUGACGAGGAGGAGGUUUAUCGAACUUUUGGCGGAUGCCUCCAAA [U54C C58U] shows self-cleavage kobs at 10000 uM GlcN6P of 0.0002 s⁻¹ or higher.
output: Condition not met

input: Hi team, for AUAAAAGCGCCAGAACUACAGAAAUGUAGUUGACGAGGAGGAGGUUUAUCGAAUUCGCGGCGGAUGCCUCCAAA [U56C U57G] , is the recorded self-cleavage kobs at 10000 uM GlcN6P at or above 0.0002 s⁻¹?
output: Condition not met

input: Form field: self-cleavage kobs at 10000 uM GlcN6P at least 0.0002 s⁻¹? Entry: AUAAAAGCGCCAGAACUACAGAAAUGUAGUUGACGCGGAGGAGGUUUAUCGAAUUCUCGGCGGAUGCCUCCAAA [A36C U56C]
output: Condition not met

input: Identify whether the reported self-cleavage kobs at 10000 uM GlcN6P of the following variant is 0.0002 s⁻¹ or greater: AUAAAGGCGCGAGAACUACAGAAAUGUAGUUGACGAGGAGGUGGUUUAUCGAAUUUUCGGCGGAUGCCUCCAAA [A6G C11G A42U]
output: Condition not met

input: API: above_or_equal(metric=self-cleavage kobs at 10000 uM GlcN6P, cutoff=0.0002 s⁻¹) for item AUAAAAGCGCCAGAAGUACAGAAAUGUAGUUGACGAGGAGGAGGUUUAUGGCAUAUUCGGCGGAUGCCUUCAAA [C16G C50G A52C U55A C70U]
output: Condition not met

input: Exam item: decide whether the reported self-cleavage kobs at 10000 uM GlcN6P for AUAAAAGCGCCAGAACUACAGAAAUGUAUUUGACGAGGAGGAGGUUUAUCGAAUUUUCGGCGGAUACCUCCAAA [G29U G66A] is at least 0.0002 s⁻¹.
output: Condition met

input: For this variant, is measured self-cleavage kobs at 10000 uM GlcN6P 0.0002 s⁻¹ or higher? AUAAAAGCACCAGAACUACAGAAAUGUAGUUGACGAGGCGAAGGUUUCACGAAUUUUCGGCGGAUGCCUCCAAA [G9A A39C G41A A48C U49A]
output: Condition not met

input: self-cleavage kobs at 10000 uM GlcN6P >= 0.0002 s⁻¹ for AUAAAAGCGCCAGAACUACAGAAAUGUAGAUGACGAGGAGGACGUUUAUCGAAUUUUCGGCGGAUGCCUCCAAA [U30A G43C] ?
output: Condition not met

input: API: above_or_equal(metric=self-cleavage kobs at 10000 uM GlcN6P, cutoff=0.0002 s⁻¹) for item AUAAAAGCGCCGGAACUACAGAAAUGUAGUGGACGAGGAGGAGGUUUAUCGAAUAUUCGGCGGAUGUCUCCAAA [A12G U31G U55A C67U]
output: Condition not met

input: Please indicate if the recorded self-cleavage kobs at 10000 uM GlcN6P for AUAAAAGCGCCUGAAAUACAGAAAUGUAGUUGACGAGGAGGAGGUCUAUCGAAUUUUCGGCGGAUGCCUCCAAA [A12U C16A U46C] meets or exceeds 0.0002 s⁻¹.
output: Condition met

input: Does the reported self-cleavage kobs at 10000 uM GlcN6P for AUAAAAGCGCCUGAACUACAGAAAUGUAGUUGACGAGGAGGAGGUUUAUCGAAUUUUCGGCUGAUGCCUCCAAA [A12U G62U] fall at or above the 0.0002 s⁻¹ mark?
output: Condition not met

input: Check the entry AUAAAAGCGCCAGAACUACAGAAAUGUAGUUAACGAGGAGGAGGUUUAUCGGAUUUUCGGCGGAUGCCUUCAAA [G32A A52G C70U] : does self-cleavage kobs at 10000 uM GlcN6P equal or exceed 0.0002 s⁻¹?
output: Condition not met

input: Is self-cleavage kobs at 10000 uM GlcN6P for AUAAAAGCGCCAGUACUACAGAAAUGUAGUUGACGAGGGGGAGAUUUAUAGAAUUUUCGGCGGAUGCCUCAAAA [A14U A39G G44A C50A C71A] at or above 0.0002 s⁻¹?
output: Condition not met

input: Kindly determine if self-cleavage kobs at 10000 uM GlcN6P recorded for AUAAAAGCGCCAGAACUACAGAAAUGUAGUUGACGAGGAGGAGAUUCAUCGAAUUUUCGGCGGAUGCCUCCAAA [G44A U47C] is above or exactly 0.0002 s⁻¹.
output: Condition not met

input: Entry AUAAAAGCGCCAGAACUACAGAAAUGUAGUUGACGAGGAGGAAGUUUAUCGAAUAUUCGGCGGAUGCCUCCAAA [G43A U55A] : is its self-cleavage kobs at 10000 uM GlcN6P no less than 0.0002 s⁻¹?
output: Condition not met

input: Is it the case that AUAAAAGCGCCAGAACUACAGAAAUGUAGUUGACGAGGUGGAGGUUUAUCGAAUCUUCGGCGGGUGCCUCCAAA [A39U U55C A64G] has self-cleavage kobs at 10000 uM GlcN6P reaching or exceeding 0.0002 s⁻¹?
output: Condition met

input: Hi team, for AUAAAAUCGCCAGAACUACAGAAAUGUAGUUUACGAGGAGGAGGUUUAUCGAAUUUUCGGCGGAUGCCUCCAAA [G7U G32U] , is the recorded self-cleavage kobs at 10000 uM GlcN6P at or above 0.0002 s⁻¹?
output: Condition not met

input: Tell me whether self-cleavage kobs at 10000 uM GlcN6P is at least 0.0002 s⁻¹ here: AUAAAAGCGCCAGAACUACAGAAAUGUAGCUGACGAGGAGGAGGUUUAUCGAAUUUUCGGCGGAUACCUCUAAA [U30C G66A C71U]
output: Condition not met

input: Determine whether this variant has self-cleavage kobs at 10000 uM GlcN6P no lower than 0.0002 s⁻¹: AUAAAAGCGCCAGAAUUACAGAAAUGUAGUUGACGAGGAGGAGGUUUAUCGAAUUUUCGGCGGAUACCUCCAAA [C16U G66A]
output: Condition met

input: Quick check, self-cleavage kobs at 10000 uM GlcN6P >= 0.0002 s⁻¹? AUAAAAGCGCCAGAUCUACAGAAAUGUAGUUGACGAGGAGGAGGUUAAUCGAAUUUUCGGCGGAUGCCUCCAAA [A15U U47A]
output: Condition met

input: Decide: self-cleavage kobs at 10000 uM GlcN6P of AUAAAUGCGCCAGAACUACAGAAAUGUAGUUGACGAGGAGGAGGUUUAUCGAAAUUUCGGCGGAUGCCUCCAAA [A6U U54A] >= 0.0002 s⁻¹?
output: Condition met

input: Check if self-cleavage kobs at 10000 uM GlcN6P >= 0.0002 s⁻¹ (inclusive). Item: AUAAAAGCGCCAGAACUACAGAAAUGUAGUUGCCGAGAAGGAGGUUUAUCGAAUUUUAGGCGGAUGCCUCCAAA [A33C G38A C58A]
output: Condition not met

input: Could you verify whether the entry AUAAAAACGCCAGAACUACAGAAAUGUAGUUGACGAGGAGGAGGUUUAUCGAAUUCUCGGCGGAUGCUUCCAAA [G7A U56C C68U] shows self-cleavage kobs at 10000 uM GlcN6P of no less than 0.0002 s⁻¹?
output: Condition not met

input: Please check the record AUAAAAGCGCCAGACCUACAGAAAUGUAGUUGACGAGGAGGAGGUUUAUCGAAUUUUCGGCGGAUGCCCCCAAA [A15C U69C] and state if its self-cleavage kobs at 10000 uM GlcN6P is at or above 0.0002 s⁻¹.
output: Condition met

input: Form field: self-cleavage kobs at 10000 uM GlcN6P at least 0.0002 s⁻¹? Entry: AUAAAAGCGCCAGAGCUACAGAAAUGUAGUUGACGAGGAGGAGAUUUAUCGAAUUUUCGGCGGAUGCCUCCAAA [A15G G44A]
output: Condition met

input: Record AUAAAAGCGCAAGAACUACAGAAAUGUAGUUGACGAGGAGGAGGUUUAUCGAAUUUUCGGCGGAUGCCGCGAAA [C11A U69G C71G] ; criterion: self-cleavage kobs at 10000 uM GlcN6P no lower than 0.0002 s⁻¹. Met?
output: Condition not met

input: Determine whether this variant has self-cleavage kobs at 10000 uM GlcN6P no lower than 0.0002 s⁻¹: AUAAAAGCGCCAGAAGUACAGAAAUGUAGUUGACGAGGAGUAGGUUUAUGGAAUUUUCGGCGGAUGCCUCCAAA [C16G G41U C50G]
output: Condition not met

input: Exam item: decide whether the reported self-cleavage kobs at 10000 uM GlcN6P for AUAAAAGCGUCAGAACUACAGAAAUGUAGUUGACGAGGAGGAGGUUUAUCGAAUUUUCGGCGCAGGCCUAAAAA [C10U G63C U65G C70A C71A] is at least 0.0002 s⁻¹.
output: Condition not met

input: Hello, I need to know if AUAAAAGCGCCAGAACUACAGAAAUGUAGUUGACGAGGAGGAGGUUUCUCGAAUUUUCGGCGGAUGCGUCCAAA [A48C C68G] has measured self-cleavage kobs at 10000 uM GlcN6P not below 0.0002 s⁻¹. Thanks!
output: Condition not met

input: Does the variant AUAAAAGCGCCCGAACUACAGAAAUGUAGUUGACGAGGAGGAGGUUUAUCGUAUUUUCGGCGGAUGGCUCCAAA [A12C A52U C67G] have recorded self-cleavage kobs at 10000 uM GlcN6P that is 0.0002 s⁻¹ or more?
output: Condition not met

input: Could you please find out whether AUAAAAGCGCCAGAACUACAGAAAUGUAGUAGACGAGGGGGAGGUUUAUCGAAUUUUCGGCGGAUGCCUCCAAA [U31A A39G] has self-cleavage kobs at 10000 uM GlcN6P that meets 0.0002 s⁻¹ or exceeds it?
output: Condition met

input: Quick check: does AUAAAAGCGCCAGAACUACAGAAAUGUAGUUGACGAGGAGGAGGUUUGUCGAAUUCUCGGCGGAUGCCUCCAAA [A48G U56C] have self-cleavage kobs at 10000 uM GlcN6P greater than or equal to 0.0002 s⁻¹?
output: Condition not met

input: Confirm if self-cleavage kobs at 10000 uM GlcN6P reported for the variant AUAAAAGCGCCAGAACUACAGAAAUGUAAUUGACGAGGAGGAGGUUUAUCGAAUUUUCGGCGGAUGCCUGCAAA [G29A C70G] is 0.0002 s⁻¹ or above.
output: Condition not met

input: Say whether AUAAAAGAGCCAGAACUACAGAAAUGUAGUUGACGAGGAGGAGGUUUAUCGAAUUUUUGGCGGAUGCCUCCAAA [C8A C58U] shows self-cleavage kobs at 10000 uM GlcN6P of 0.0002 s⁻¹ or more.
output: Condition not met

input: Quick check: does AUAAAAGCGCCAGUACUACAGAAAUGUAGUUGACGAGGAGGAGGUUUAUCGAAUGUUCGGCGGAUGCCUCCAAA [A14U U55G] have self-cleavage kobs at 10000 uM GlcN6P greater than or equal to 0.0002 s⁻¹?
output: Condition met

input: Check the entry AUAAAAGCGCCAGAACUACAGAAAUGUAGUUGACGGGGAGGUGGUUUAUCGAAUUUUCGGCGGAUGCCUCCAAA [A36G A42U] : does self-cleavage kobs at 10000 uM GlcN6P equal or exceed 0.0002 s⁻¹?
output: Condition not met
